# Test system: Laodelphax striatellus
# protocol-notes: Insecticidal activity against larvae of Laodelphax striatella (small brown planthopper) fed with compound solution dipped rice seedling measured after 5 days by test tube method
# Type: functional
# assay-setup: 120 h
endpoint-name: LC50 (µg/mL)
API: value field is a number in µg/mL; no unit string.

Qu. Could you share what LC50 was measured for `CC(C)(C)SC/C(=C1/NCCN1Cc1ccc(Cl)nc1)[N+](=O)[O-]` , tested on Laodelphax striatellus?
Ans. 0.43

Qu. Same for `O=C(SC/C(=C1/NCCN1Cc1ccc(Cl)nc1)[N+](=O)[O-])c1ccccc1`
Ans. 6.3

Qu. Same for `C[Si](C)(CSC/C(=C1/NCCN1Cc1ccc(Cl)nc1)[N+](=O)[O-])c1ccccc1`
Ans. 0.1

Qu. Same for `O=[N+]([O-])/C(CSCc1ccccc1)=C1\NCCN1Cc1ccc(Cl)nc1`
Ans. 0.36
